- Test system: Rattus norvegicus
- ASSAY_TEXT: Antiinflammatory activity in Wistar rat assessed as inhibition of carrageenan-induced paw edema at 100 mg/kg, after 4 hrs
- Type: functional
Tag: True if measured inhibition in vivo at 100 mg/kg is not below 30%, False if it is.

The following compounds have reported results that may help.
In [3]: df
Out[3]:
                                   compound  discrete_label
0  COc1cc2c(cc1OC)C(CC(=O)Nc1ccc(Br)cc1)CC2 (stereo unspecified)            True
1  COc1ccc(NC(=O)CC2CCc3cc(OC)c(OC)cc32)cc1 (stereo unspecified)           False
2  COc1cc2c(cc1OC)C(CC(=O)Nc1cccc(C)c1)CC2 (stereo unspecified)            True
3  COc1cc2c(cc1OC)C(CC(=O)Nc1ccncc1)CC2 (stereo unspecified)            True
4  COc1cc2c(cc1OC)C(CC(=O)Nc1ccccc1)CC2 (stereo unspecified)            True
5  COc1cc2c(cc1OC)C(CC(=O)Nc1ccc([N+](=O)[O-])cc1)CC2 (stereo unspecified)            True

Q: Determine whether measured inhibition in vivo at 100 mg/kg meets or exceeds 30% for COc1cc2c(cc1OC)C(CC(=O)Nc1cccnc1)CC2 (stereo unspecified)
A: True

Q: Determine whether measured inhibition in vivo at 100 mg/kg meets or exceeds 30% for COc1ccccc1NC(=O)CC1CCc2cc(OC)c(OC)cc21 (stereo unspecified)
A: False

Q: Determine whether measured inhibition in vivo at 100 mg/kg meets or exceeds 30% for COc1cc2c(cc1OC)C(CC(=O)Nc1ccccc1C)CC2 (stereo unspecified)
A: False

Q: Determine whether measured inhibition in vivo at 100 mg/kg meets or exceeds 30% for COc1cc2c(cc1OC)C(CC(=O)Nc1ccc(NC(C)=O)cc1)CC2 (stereo unspecified)
A: False

* * *

- Tested on: Rattus norvegicus
- ASSAY_TEXT: Antiinflammatory activity in Wistar rat assessed as inhibition of carrageenan-induced paw edema at 100 mg/kg, after 4 hrs
- Type: functional
READOUT_LABEL: inhibition in vivo at 100 mg/kg (%)
All answers are understood in %, so give the number only.

Some solved entries appear below for comparison.
In [3]: df
Out[3]:
                                   compound       assay_target  observed_result
0  COc1cc2c(cc1OC)C(CC(=O)Nc1cccc(Cl)c1)CC2 (centres undefined)  Rattus norvegicus             25.8
1  COc1cc2c(cc1OC)C(CC(=O)Nc1ccc(Cl)cc1)CC2 (centres undefined)  Rattus norvegicus             60.9
2  COc1cc2c(cc1OC)C(CC(=O)Nc1ccc(C)cc1)CC2 (centres undefined)  Rattus norvegicus             32.8

Q: Query: inhibition in vivo at 100 mg/kg; subject: COc1cc2c(cc1OC)C(CC(=O)O)CC2 (centres undefined)
A: 23.9

* * *

- Tested on: Rattus norvegicus
- ASSAY_TEXT: Antiinflammatory activity in Wistar rat assessed as inhibition of carrageenan-induced paw edema at 100 mg/kg, after 1 hr
- Format: functional
READOUT_LABEL: inhibition in vivo at 100 mg/kg (%)
All answers are understood in %, so give the number only.

>>> print(df.to_string())
                                   compound       assay_target  observed_result
0  COc1cc2c(cc1OC)C(CC(=O)Nc1cccc(C)c1)CC2 (centres undefined)  Rattus norvegicus             37.5
1  COc1cc2c(cc1OC)C(CC(=O)O)CC2 (centres undefined)  Rattus norvegicus             18.8
2  COc1cc2c(cc1OC)C(CC(=O)Nc1ccncc1)CC2 (centres undefined)  Rattus norvegicus             42.2

# context switch: different compound, same inhibition in vivo at 100 mg/kg
Q: Query: inhibition in vivo at 100 mg/kg; subject: COc1cc2c(cc1OC)C(CC(=O)Nc1ccc(NC(C)=O)cc1)CC2 (centres undefined)
A: 25

* * *

- System: Rattus norvegicus
- ASSAY_TEXT: Antiinflammatory activity in Wistar rat assessed as inhibition of carrageenan-induced paw edema at 100 mg/kg, after 3 hrs
- Format: functional
READOUT_LABEL: inhibition in vivo at 100 mg/kg (%)
All answers are understood in %, so give the number only.

In [3]: df
Out[3]:
                                   compound                    readout_label  observed_result
0  COc1cc2c(cc1OC)C(CC(=O)O)CC2 (stereo not given)  inhibition in vivo at 100 mg/kg             27.5
1  COc1cc2c(cc1OC)C(CC(=O)Nc1cccnc1)CC2 (stereo not given)  inhibition in vivo at 100 mg/kg             33.3
2  COc1cc2c(cc1OC)C(CC(=O)Nc1ccc(Cl)cc1)CC2 (stereo not given)  inhibition in vivo at 100 mg/kg             60.9
3  COc1cc2c(cc1OC)C(CC(=O)Nc1ccccc1C)CC2 (stereo not given)  inhibition in vivo at 100 mg/kg             26.1
4  COc1cc2c(cc1OC)C(CC(=O)Nc1ccc(NC(C)=O)cc1)CC2 (stereo not given)  inhibition in vivo at 100 mg/kg             23.2

Q: Form field: inhibition in vivo at 100 mg/kg recorded for COc1cc2c(cc1OC)C(CC(=O)Nc1cccc(C)c1)CC2 (stereo not given) with Rattus norvegicus (enter value)
A: 37.7

Q: Form field: inhibition in vivo at 100 mg/kg recorded for COc1cc2c(cc1OC)C(CC(=O)Nc1ccc([N+](=O)[O-])cc1)CC2 (stereo not given) with Rattus norvegicus (enter value)
A: 37.7

Q: Form field: inhibition in vivo at 100 mg/kg recorded for COc1cc2c(cc1OC)C(CC(=O)Nc1ccncc1)CC2 (stereo not given) with Rattus norvegicus (enter value)
A: 42

Q: Form field: inhibition in vivo at 100 mg/kg recorded for COc1cc2c(cc1OC)C(CC(=O)Nc1ccc(Br)cc1)CC2 (stereo not given) with Rattus norvegicus (enter value)
A: 43.5

Q: Form field: inhibition in vivo at 100 mg/kg recorded for COc1ccccc1NC(=O)CC1CCc2cc(OC)c(OC)cc21 (stereo not given) with Rattus norvegicus (enter value)
A: 21.7

Q: Form field: inhibition in vivo at 100 mg/kg recorded for COc1cc2c(cc1OC)C(CC(=O)Nc1ccc(C)cc1)CC2 (stereo not given) with Rattus norvegicus (enter value)
A: 34.8

Q: Form field: inhibition in vivo at 100 mg/kg recorded for COc1cc2c(cc1OC)C(CC(=O)Nc1cccc(Cl)c1)CC2 (stereo not given) with Rattus norvegicus (enter value)
A: 24.6

Q: Form field: inhibition in vivo at 100 mg/kg recorded for COc1cc2c(cc1OC)C(CC(=O)Nc1ccccn1)CC2 (stereo not given) with Rattus norvegicus (enter value)
A: 30.4

Q: Form field: inhibition in vivo at 100 mg/kg recorded for COc1cc2c(cc1OC)C(CC(=O)Nc1ccccc1)CC2 (stereo not given) with Rattus norvegicus (enter value)
A: 36.2

Q: Form field: inhibition in vivo at 100 mg/kg recorded for COc1ccc(NC(=O)CC2CCc3cc(OC)c(OC)cc32)cc1 (stereo not given) with Rattus norvegicus (enter value)
A: 26.1

* * *

- System: Rattus norvegicus
- ASSAY_TEXT: Antiarthritic activity against adjuvant-induced arthritis in Wistar rat assessed as inhibition of paw edema at 100 mg/kg, po on day 8
- Format: functional
- RUN_CONDITIONS: 192 h
Tag: Met if measured inhibition in vivo at 100 mg/kg is not below 20%, Not met if it is.

The following compounds have reported results that may help.
In [3]: df
Out[3]:
                                   compound  discrete_label
0  COc1cc2c(cc1OC)C(CC(=O)Nc1ccc(Cl)cc1)CC2 (stereo not given)         Not met
1  COc1cc2c(cc1OC)C(CC(=O)Nc1cccc(C)c1)CC2 (stereo not given)         Not met
2  COc1cc2c(cc1OC)C(CC(=O)Nc1ccncc1)CC2 (stereo not given)         Not met
3  COc1cc2c(cc1OC)C(CC(=O)Nc1ccc([N+](=O)[O-])cc1)CC2 (stereo not given)         Not met

Please find the next compound below.
Q: Determine whether measured inhibition in vivo at 100 mg/kg meets or exceeds 20% for COc1cc2c(cc1OC)C(CC(=O)Nc1cccc(Cl)c1)CC2 (stereo not given)
A: Met

* * *

- System: Rattus norvegicus
- ASSAY_TEXT: Antipyretic activity against LPS-induced pyresis in Wistar rat assessed as change in rectal temperature at 100 mg/kg, po after 7 hrs
- Assay type: functional
Quick reference: Activity of the listed items.
All answers are understood in °C, so give the number only.

Some solved entries appear below for comparison.
In [3]: df
Out[3]:
                                   compound  value_unit  observed_result
0  COc1cc2c(cc1OC)C(CC(=O)Nc1ccc(Cl)cc1)CC2 (stereo unspecified)          °C              0.4
1  COc1ccc2c(c1)c(CC(=O)O)c(C)n2C(=O)c1ccc(Cl)cc1          °C             0.55
2  COc1cc2c(cc1OC)C(CC(=O)Nc1ccncc1)CC2 (stereo unspecified)          °C             0.42
3  COc1cc2c(cc1OC)C(CC(=O)Nc1cccc(Cl)c1)CC2 (stereo unspecified)          °C             0.42
4  COc1ccc(NC(=O)CC2CCc3cc(OC)c(OC)cc32)cc1 (stereo unspecified)          °C             0.43

Q: Query: Activity; subject: COc1cc2c(cc1OC)C(CC(=O)Nc1cccc(C)c1)CC2 (stereo unspecified)
A: 0.82
